system: Akt; test: In cell ELISA colorimetric Akt activity, C6 cells; type: cell-based, rat; conditions: compounds at IC50 concentrations for 24 h
Given measured Akt Inhibition % C6 Cell Line, output MET if it is greater than or equal to 30% and NOT MET if not.

[[record]]
compound = "N#Cc1ccc(Oc2ccc(C=NNc3nc(-c4ccc(C#N)cc4)cs3)cc2)cc1"
measurement_target = "Akt"
category_label = "MET"

[[record]]
compound = "N.N.[Cl][Pt][Cl] [Cisplatin, cisplatin, reference compound]"
measurement_target = "Akt"
category_label = "MET"

[[record]]
compound = "N#Cc1ccc(Oc2ccc(C=NNc3nc(-c4ccc(O)cc4)cs3)cc2)cc1"
measurement_target = "Akt"
category_label = "NOT MET"

[[record]]
compound = "Cc1ccc(-c2csc(NN=Cc3ccc(Oc4ccc(C#N)cc4)cc3)n2)cc1"
measurement_target = "Akt"
category_label = "MET"

[[record]]
compound = "N#Cc1ccc(Oc2ccc(C=NNC(N)=S)cc2)cc1"
measurement_target = "Akt"
category_label = "NOT MET"


---

ENDPOINT_LABEL: melting point

[[record]]
smiles_text = "N#Cc1ccc(Oc2ccc(C=NNc3nc(-c4ccc5ccccc5c4)cs3)cc2)cc1"
reported = "204 to 205 °C"

[[record]]
smiles_text = "N#Cc1ccc(Oc2ccc(C=NNc3nc(-c4ccc(O)cc4)cs3)cc2)cc1"
reported = "249 to 250 °C"

[[record]]
smiles_text = "COc1ccc(-c2csc(NN=Cc3ccc(Oc4ccc(C#N)cc4)cc3)n2)cc1"
reported = "210 to 211 °C"

[[record]]
smiles_text = "Cc1ccc(-c2csc(NN=Cc3ccc(Oc4ccc(C#N)cc4)cc3)n2)cc1"
reported = "228 to 229 °C"

[[record]]
smiles_text = "N#Cc1ccc(Oc2ccc(C=NNc3nc(-c4ccc(C#N)cc4)cs3)cc2)cc1"
reported = "232 to 233 °C"


---

Quick reference: melting point of the listed items.
ENDPOINT_LABEL: melting point

[[record]]
smiles_text = "N#Cc1ccc(Oc2ccc(C=NNc3nc(-c4ccc([N+](=O)[O-])cc4)cs3)cc2)cc1"
reported = "250 to 251 °C"

[[record]]
smiles_text = "N#Cc1ccc(Oc2ccc(C=NNC(N)=S)cc2)cc1"
reported = "235 to 236 °C"

[[record]]
smiles_text = "N#Cc1ccc(Oc2ccc(C=NNc3nc(-c4ccc(F)cc4)cs3)cc2)cc1"
reported = "204 to 205 °C"

[[record]]
smiles_text = "N#Cc1ccc(Oc2ccc(C=NNc3nc(-c4ccc(Br)cc4)cs3)cc2)cc1"
reported = "217 to 218 °C"

[[record]]
smiles_text = "N#Cc1ccc(Oc2ccc(C=NNc3nc(-c4ccc(Cl)cc4)cs3)cc2)cc1"
reported = "227 to 228 °C"


---

tested on: A549 human lung adenocarcinoma cell line; assay: MTT assay, A549 cells; assay type: cell-based; settings: Homo sapiens, A549, 24 h
Quick reference: IC50 of the listed items.
ENDPOINT_LABEL: IC50

[[record]]
compound = "N#Cc1ccc(Oc2ccc(C=NNc3nc(-c4ccccc4)cs3)cc2)cc1 [Compound 1]"
reported = "410 µg/mL"

[[record]]
compound = "N#Cc1ccc(Oc2ccc(C=NNc3nc(-c4ccc(Br)cc4)cs3)cc2)cc1 [Compound 5]"
reported = "198 µg/mL"

[[record]]
compound = "N#Cc1ccc(Oc2ccc(C=NNc3nc(-c4ccc(O)cc4)cs3)cc2)cc1 [Compound 8]"
reported = "107 µg/mL"

[[record]]
compound = "COc1ccc(-c2csc(NN=Cc3ccc(Oc4ccc(C#N)cc4)cc3)n2)cc1 [Compound 9]"
reported = "233 µg/mL"

[[record]]
compound = "N#Cc1ccc(Oc2ccc(C=NNc3nc(-c4ccc([N+](=O)[O-])cc4)cs3)cc2)cc1 [Compound 2]"
reported = "100 µg/mL"

[[record]]
compound = "N#Cc1ccc(Oc2ccc(C=NNc3nc(-c4ccc(C#N)cc4)cs3)cc2)cc1 [Compound 6]"
reported = "12 µg/mL"

[[record]]
compound = "N#Cc1ccc(Oc2ccc(C=NNc3nc(-c4ccc(Cl)cc4)cs3)cc2)cc1 [Compound 4]"
reported = "207 µg/mL"

[[record]]
compound = "Cc1ccc(-c2csc(NN=Cc3ccc(Oc4ccc(C#N)cc4)cc3)n2)cc1 [Compound 7]"
reported = "270 µg/mL"

[[record]]
compound = "N#Cc1ccc(Oc2ccc(C=NNc3nc(-c4ccc5ccccc5c4)cs3)cc2)cc1 [Compound 10]"
reported = "> 500 µg/mL"

[[record]]
compound = "N#Cc1ccc(Oc2ccc(C=NNc3nc(-c4ccc(F)cc4)cs3)cc2)cc1 [Compound 3]"
reported = "193 µg/mL"

[[record]]
compound = "N#Cc1ccc(Oc2ccc(C=NNC(N)=S)cc2)cc1 [Compound A]"
reported = "92.5 µg/mL"

